Test system: CP185
Experiment: qHTS profiling for inhibitors of Plasmodium falciparum proliferation (AID 504749); note: nearly all actives have a fitted effect of over 60% in size
Settings: P. falciparum in erythrocytes, SYBR Green DNA, 72 h; series mostly up to 28.7 µM
Inconclusive results are not listed. The source made the active and inactive calls. Calls come from the whole dose curve; as a rule, active = well fitted inhibition curve with a large enough effect; inconclusive = small, poorly fitted or top-dose-only effect; inactive = flat fitted curve, though single readings scatter.
Respond only with the outcome that fits, drawn from yes (active), no (inactive)

[[record]]
compound = "Cc1ccccc1OCC(O)CNCCOc1ccc(C(N)=O)cc1 (stereo unspecified)"
class_assignment = "no"

[[record]]
compound = "C[C@@H]1CCC2[C@@H](C)[C@@H](O)O[C@@H]3O[C@@]4(C)CC[C@@H]1[C@@]23OO4 (stereo partly specified)"
class_assignment = "yes"

[[record]]
compound = "COC(=O)CCC(=O)CN"
class_assignment = "no"

[[record]]
compound = "CCCCCCCCCCCCCC[n+]1ccc(C)cc1"
class_assignment = "yes"

[[record]]
compound = "CCCCC(C)(O)C/C=C/[C@H]1[C@H](O)CC(=O)[C@@H]1CCCCCCC(=O)OC (stereo partly specified)"
class_assignment = "no"

[[record]]
compound = "C=CCSSSCC=C"
class_assignment = "no"


From here, focus on the item given below.
Answer briefly: the call reported for Cc1cc(C(=O)NNCc2ccccc2)no1 in this assay. no

* * *

Test system: JEG-3
Test: Primary qHTS to identify gynecologic anti-cancer compounds using libraries of approved drugs and bioactive compounds (AID 1345084); note: % is set by controls: 0 for no effect and ±100 for the full control effect; nearly all actives have a fitted effect of over 55% in size
Details: Gynecologic cancer cell panel viability, ATPlite luminescence, 48 h; series mostly up to 57.5 µM
Results filed as inconclusive are left out. The source made the active and inactive calls. The call rests on the fitted dose curve; in most records, active means well fitted cell-killing curve with a large enough effect; inconclusive means small, poorly fitted or top-dose-only effect, or effect the other way; inactive means flat fitted curve, though single readings scatter.
PROPERTY NAME: activity change, negative = cytotoxicity

[[record]]
compound = "CC12CCC3c4ccc(O)cc4CCC3C1CCC2OC1OC(C(=O)O)C(O)C(O)C1O (centres undefined)"
measured_result = "inactive"

[[record]]
compound = "CC(C)(C)NCC(O)COc1cccc2c1CCCC2=O (centres undefined)"
measured_result = "inactive"

[[record]]
compound = "C[C@]12C=CC(=O)C=C1CC[C@@H]1[C@@H]2[C@@H](O)C[C@@]2(C)[C@H]1CC[C@]2(O)C(=O)COC(=O)CCC(=O)O"
measured_result = "inactive"

[[record]]
compound = "CC1=C(C)C(=O)OC(C(C)C2C(O)CC3C4C5OC5C5(O)CC(OC6OC(CO)C(O)C(O)C6O)CC(O)C5(C)C4CCC32C)C1 (centres undefined)"
measured_result = "inactive"


* * *

System: PC49
Test: qHTS profiling for inhibitors of Plasmodium falciparum proliferation (AID 504749); note: nearly all actives have a fitted effect of over 60% in size
Conditions: P. falciparum in erythrocytes, SYBR Green DNA, 72 h; series mostly up to 28.7 µM
Results filed as inconclusive are left out. Active and inactive are the calls of the source. Calls follow the shape of the dose curve; as a rule, active = well fitted inhibition curve with a large enough effect; inconclusive = small, poorly fitted or top-dose-only effect; inactive = flat fitted curve, though single readings scatter.
Respond only with the outcome that fits, drawn from class 1 (active), class 0 (inactive)

[[record]]
compound = "Nc1ncnc2c1ncn2[C@@H]1O[C@H](COP(=O)(O)OP(=O)(O)OP(=O)(O)O)[C@@H](O)[C@H]1O"
class_assignment = "class 0"

[[record]]
compound = "CC(C)(C)C(=O)OCOC(=O)[C@@H]1N2C(=O)[C@@H](N=CN3CCCCCC3)[C@H]2SC1(C)C"
class_assignment = "class 0"

[[record]]
compound = "O=S(=O)(O)c1ccc2c(N=Nc3ccc(S(=O)(=O)O)c4ccccc34)c(O)c(S(=O)(=O)O)cc2c1"
class_assignment = "class 0"

[[record]]
compound = "CCNC(=O)[C@@H]1CCCN1C(=O)[C@H](CCCN=C(N)N)NC(=O)[C@H](CC(C)C)NC(=O)[C@@H](Cc1c[nH]c2ccccc12)NC(=O)[C@H](Cc1ccc(O)cc1)NC(=O)[C@H](CO)NC(=O)[C@H](Cc1c[nH]c2ccccc12)NC(=O)[C@H](Cc1cnc[nH]1)NC(=O)[C@@H]1CCC(=O)N1"
class_assignment = "class 1"

[[record]]
compound = "CCCCCCCC(=O)O"
class_assignment = "class 0"


From here, focus on the item given below.
Answer briefly: the call reported for CO[C@H]1C[C@@H]2CC[C@@H](C)[C@@](O)(O2)C(=O)C(=O)N2CCCC[C@H]2C(=O)O[C@H]([C@H](C)C[C@@H]2CC[C@@H](OCCO)[C@H](OC)C2)CC(=O)[C@H](C)/C=C(\C)[C@@H](O)[C@@H](OC)C(=O)[C@H](C)C[C@H](C)/C=C/C=C/C=C/1C in this assay. class 1

* * *

System: Nanoluciferase (engineered Oplophorus gracilirostris luciferase)
Test: Primary Nanoluciferase (NLuc) qHTS assay for identification of artifact compounds. (AID 1845222);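 note: NLuc secreted into diluted conditioned medium of S16 cells; 0% = DMSO and -100% = no enzyme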
Settings: NLuc-conditioned medium, Nano-Glo luminescence, 5 min; series mostly up to 54.1 µM
Calls of active or inactive are those of the source. Calls follow the shape of the dose curve; as a rule, active = well fitted inhibition curve with a large enough effect; inconclusive = small, poorly fitted or top-dose-only effect; inactive = flat fitted curve, though single readings scatter.
PROPERTY NAME: activity, negative = inhibition

Completed entries (count: 4):
[[record]]
molecule = "Oc1ccc([C@H]2COc3cc(O)ccc3C2)cc1"
measured_result = "inactive"

[[record]]
molecule = "CC(/C=C/[C@]1(O)[C@@]2(C)CO[C@@]1(C)C[C@@H](O)C2)=C\\C(=O)O[C@@H]1O[C@H](CO)[C@@H](O)[C@H](O)[C@H]1O"
measured_result = "inactive"

[[record]]
molecule = "CC(=O)OC[C@@]12[C@H](O)C[C@]3(C)C(=CCC4[C@@]5(C)CC[C@H](O[C@@H]6O[C@H](C(=O)O)[C@@H](O[C@@H]7O[C@H](CO)[C@@H](O)[C@H](O)[C@H]7O)[C@H](O)[C@H]6O[C@@H]6O[C@H](CO)[C@@H](O)[C@H](O)[C@H]6O)[C@](C)(CO)C5CC[C@]43C)[C@@H]1CC(C)(C)[C@@H](OC(C)=O)[C@@H]2O (stereo partly specified)"
measured_result = "3.06% [at 11.6 µM] (inactive)"

[[record]]
molecule = "CC(C)C1(O[C@@H]2O[C@H](CO)[C@@H](O)[C@H](O)[C@H]2O)CC=C(CO)CC1 (stereo partly specified)"
measured_result = "inactive"


Look up activity, negative = inhibition for this molecule: CC(=O)N1c2ccccc2C2(O)CC3C(=O)NC(CC(C)C)C(=O)N3C12 (stereo unspecified) inactive

Same thing, different molecule: CC(=O)O[C@@H]1C[C@@]23C[C@@]24CC[C@H](OC2OC[C@@H](O)[C@H](O)[C@H]2O)C(C)(C)[C@@H]4CC[C@H]3[C@]2(C)CC3OC4(C[C@@H](C)C3[C@@]12C)OCC1(C)OC14 (stereo partly specified) inactive

* * *

System: PC15
Assay: qHTS profiling for inhibitors of Plasmodium falciparum proliferation (AID 504749); note: nearly all actives have a fitted effect of over 60% in size
Conditions: P. falciparum in erythrocytes, SYBR Green DNA, 72 h; series mostly up to 28.7 µM
Inconclusive results are not listed. Calls of active or inactive are those of the source. Calls follow the shape of the dose curve; as a rule, active = well fitted inhibition curve with a large enough effect; inconclusive = small, poorly fitted or top-dose-only effect; inactive = flat fitted curve, though single readings scatter.
Respond only with the outcome that fits, drawn from label 1 for active, label 0 for inactive

Would you please look over these solved cases?
[[record]]
compound = "Oc1cc(O)c2c(c1)OC(c1ccc(O)c(O)c1)C(O)C2 (centres undefined)"
class_assignment = "label 0"

[[record]]
compound = "CN=C(NC#N)Nc1ccc(C2=NNC(=O)C[C@@H]2C)cc1"
class_assignment = "label 0"

[[record]]
compound = "CCCCCCCCCCCC[n+]1ccc2ccccc2c1"
class_assignment = "label 1"


From here, focus on the item given below.
Answer briefly: the call reported for CCNC(=O)[C@@H]1CCCN1C(=O)[C@H](CCCN=C(N)N)NC(=O)[C@H](CC(C)C)NC(=O)[C@@H](Cc1c[nH]c2ccccc12)NC(=O)[C@H](Cc1ccc(O)cc1)NC(=O)[C@H](CO)NC(=O)[C@H](Cc1c[nH]c2ccccc12)NC(=O)[C@H](Cc1cnc[nH]1)NC(=O)[C@@H]1CCC(=O)N1 in this assay. label 1

* * *

Experiment: qHTS for small molecule inhibitors of Yes1 kinase: Counter Assay (AID 686950);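 note: no kinase present so only ADP-Glo detection of a fixed ADP amount is tested; luminescence from ADP-Glo reporting ADP in a fixed ATP and ADP mixture; 0% = DMSO wells with ATP plus ADP and -100% = ATP-only wells without ADP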
Details: series mostly up to 76.9 µM
Active and inactive are the calls of the source. Calls come from the whole dose curve; as a rule, active = well fitted curve in the direction sought with a large enough effect; inactive = no such curve, though single readings can be large or run the other way.
PROPERTY NAME: outcome

[[record]]
compound = "O=c1cc(C2=CC=CC3Sc4ccccc4SC23)oc(N2CCOCC2)c1 (stereo unspecified)"
property_name = "outcome"
measured_result = "inactive"

[[record]]
compound = "CC(NC(=O)Cc1cc(F)cc(F)c1)C(=O)NC(C(=O)OC(C)(C)C)c1ccccc1 (stereo unspecified)"
property_name = "outcome"
measured_result = "inactive"

[[record]]
compound = "CN(NC(=O)CC(=O)NN(C)C(=S)c1ccccc1)C(=S)c1ccccc1"
property_name = "outcome"
measured_result = "inactive"

[[record]]
compound = "CCC1(O)CC2CN(CCc3c([nH]c4ccccc34)[C@@](C(=O)OC)(c3cc4c(cc3OC)N(C=O)[C@H]3[C@](O)(C(=O)OC)[C@H](OC(C)=O)[C@]5(CC)C=CCN6CC[C@]43[C@@H]65)C2)C1 (stereo partly specified)"
property_name = "outcome"
measured_result = "inactive"

[[record]]
compound = "CCC1(Cc2ccc(N)cc2)CCC(=O)NC1=O (stereo unspecified)"
property_name = "outcome"
measured_result = "inactive"


// switching to the query compound
Look up outcome for this compound: Cc1nnc(C(C)C)n1C1CC2CCC(C1)N2CC[C@H](NC(=O)C1CCC(F)(F)CC1)c1ccccc1 (stereo partly specified) inactive

Source of measurements: PubChem BioAssay (NCATS)
